- TARGET ENTITY: T1, 6xHis-IKKβ(1-669) EE (human, UniProt O14920 1-669, S177E | S181E)
- T1 sequence (looked up): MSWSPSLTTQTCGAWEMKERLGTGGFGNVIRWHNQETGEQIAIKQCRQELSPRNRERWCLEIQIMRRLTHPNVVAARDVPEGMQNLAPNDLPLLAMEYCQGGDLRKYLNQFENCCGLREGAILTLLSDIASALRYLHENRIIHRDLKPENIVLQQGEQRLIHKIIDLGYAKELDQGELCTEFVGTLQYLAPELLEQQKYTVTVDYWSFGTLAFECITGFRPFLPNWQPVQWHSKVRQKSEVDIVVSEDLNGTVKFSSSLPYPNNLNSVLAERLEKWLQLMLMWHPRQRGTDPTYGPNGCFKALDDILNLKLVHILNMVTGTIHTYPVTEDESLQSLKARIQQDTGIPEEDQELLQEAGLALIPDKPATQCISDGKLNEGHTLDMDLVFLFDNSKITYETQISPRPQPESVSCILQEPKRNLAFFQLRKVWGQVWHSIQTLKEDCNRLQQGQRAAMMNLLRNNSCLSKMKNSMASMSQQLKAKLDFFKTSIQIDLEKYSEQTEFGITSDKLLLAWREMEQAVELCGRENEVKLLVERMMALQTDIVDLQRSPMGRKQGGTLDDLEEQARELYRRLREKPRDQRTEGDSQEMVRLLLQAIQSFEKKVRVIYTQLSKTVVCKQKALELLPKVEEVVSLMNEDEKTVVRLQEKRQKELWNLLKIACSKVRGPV
- METHOD SUMMARY: pull-down
PROPERTY MEASURED: binding result

DELPYDDCVFGGQRLTL (peptide, UniProt P25963 301-317, looked up) [MBP-IκBα pep(s)]    binds
MBP-IκBα(73-317) (domain or fragment, human, UniProt P25963 73-317, looked up) DGDSFLHLAIIHEEKALTMEVIRQVKGDLAFLNFQNNLQQTPLHLAVITNQPEIAEALLGAGCDPELRDFRGNTPLHLACEQGCLASVGVLTQSCTTPHLHSILKATNYNGHTCLHLASIHGYLGIVELLVSLGADVNAQEPCNGRTALHLAVDLQNPDLVSLLLKCGADVNRVTYQGYSPYQLTWGRPSTRIQQQLGQLTLENLQMLPESEDEESYDTESEFTEFTEDELPYDDCVFGGQRLTL    binds
DELPYDDLVFGGQRLTL (peptide, UniProt P25963 301-317, looked up) [MBP-IκBα pep(s) C308L]    binds
DELPYDDFVFGGQRLTL (peptide, UniProt P25963 301-317, looked up) [MBP-IκBα pep(s) C308F]    binds
